EXPERIMENTAL_SYSTEM: JARID1B (Homo sapiens, UniProt Q9UGL1)
Construct: The FLAG tagged full length JARID1B enzyme was expressed in Sf21 insect cells using FLAG-JARID1B baculoviruses; FLAG (N); made in house; host or cells: Sf21 insect cells (baculovirus)
Sequence (Q9UGL1 whole entry): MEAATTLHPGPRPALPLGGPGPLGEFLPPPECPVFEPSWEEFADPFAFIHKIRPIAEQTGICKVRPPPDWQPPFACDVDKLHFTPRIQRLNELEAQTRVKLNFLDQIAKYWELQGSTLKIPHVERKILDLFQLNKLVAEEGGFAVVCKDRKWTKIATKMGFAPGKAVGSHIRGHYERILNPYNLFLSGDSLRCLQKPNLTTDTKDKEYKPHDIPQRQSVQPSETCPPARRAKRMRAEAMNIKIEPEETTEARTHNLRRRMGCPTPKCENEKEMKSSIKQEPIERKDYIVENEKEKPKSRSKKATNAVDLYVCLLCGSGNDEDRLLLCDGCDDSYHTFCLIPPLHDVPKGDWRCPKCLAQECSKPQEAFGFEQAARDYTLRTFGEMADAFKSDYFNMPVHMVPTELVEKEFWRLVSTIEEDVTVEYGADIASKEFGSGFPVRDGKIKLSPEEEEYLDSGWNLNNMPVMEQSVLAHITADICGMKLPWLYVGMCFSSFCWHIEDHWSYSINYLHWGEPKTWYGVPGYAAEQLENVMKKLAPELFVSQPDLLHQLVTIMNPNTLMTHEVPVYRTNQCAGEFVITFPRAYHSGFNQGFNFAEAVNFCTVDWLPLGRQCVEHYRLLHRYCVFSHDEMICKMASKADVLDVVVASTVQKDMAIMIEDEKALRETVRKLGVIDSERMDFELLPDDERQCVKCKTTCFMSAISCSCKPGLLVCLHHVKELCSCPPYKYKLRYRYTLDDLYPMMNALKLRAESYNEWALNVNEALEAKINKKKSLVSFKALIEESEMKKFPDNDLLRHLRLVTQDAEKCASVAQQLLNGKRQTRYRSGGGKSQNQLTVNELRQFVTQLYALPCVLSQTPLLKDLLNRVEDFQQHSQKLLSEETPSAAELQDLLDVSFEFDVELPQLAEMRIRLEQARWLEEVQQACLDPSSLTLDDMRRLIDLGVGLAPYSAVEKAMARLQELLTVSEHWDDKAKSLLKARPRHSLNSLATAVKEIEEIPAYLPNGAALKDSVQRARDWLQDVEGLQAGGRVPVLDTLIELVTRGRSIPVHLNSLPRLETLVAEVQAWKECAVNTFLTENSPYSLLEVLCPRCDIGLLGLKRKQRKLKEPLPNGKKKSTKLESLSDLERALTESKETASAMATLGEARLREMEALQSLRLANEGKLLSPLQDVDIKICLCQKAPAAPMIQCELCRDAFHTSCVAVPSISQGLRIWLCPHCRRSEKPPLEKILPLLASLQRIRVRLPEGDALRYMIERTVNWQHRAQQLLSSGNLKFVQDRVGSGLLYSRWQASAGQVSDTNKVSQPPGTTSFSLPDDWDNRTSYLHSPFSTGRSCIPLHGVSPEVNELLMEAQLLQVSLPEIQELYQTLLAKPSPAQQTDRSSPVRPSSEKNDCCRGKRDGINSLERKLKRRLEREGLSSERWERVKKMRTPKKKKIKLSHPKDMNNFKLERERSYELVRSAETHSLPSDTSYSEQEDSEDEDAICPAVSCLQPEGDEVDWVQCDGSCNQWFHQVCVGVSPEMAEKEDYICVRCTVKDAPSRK
TEST_DESCRIPTION: FLAG-JARID1B histone demethylase assay with AlphaScreen detection (HTS and dose response);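 note: FLAG-tagged JARID1B at 4 nM acting on a biotinylated H3K4me3 peptide, demethylation read by AlphaScreen luminescence, with hits checked against bio-H3K4me2 without enzyme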
Assay type: biochemical
CONDITION_NOTES: high-throughput screen, compound 20 μM, standard demethylase conditions (10 μM α-KG, 50 μM Fe (II)); read-out: Inhibitory effect (percent)
Structures can show the parent of a compound that is named as a salt.
Please go through the items and note down their inhibition at 20 µM.
Number in %, nothing else.

[ask] // query inhibition at 20 µM value for entry O=C1C=C2CC3(O)COc4c(ccc(O)c4O)C3=C2C=C1O (centres unmarked) [YU155257, HEMATEIN, reference compound]
[reply] 105

[ask] For Cc1cc(/C=C/c2ccc3cc(N(C)C)ccc3[n+]2C)c(C)n1-c1ccccc1 [YU034547, PYRVINIUM PAMOATE, reference compound] then?
[reply] 64.4

[ask] For Cc1ccc([N+](=O)[O-])cc1N(CC(=O)Nc1ccc(Cl)c(C(F)(F)F)c1)S(C)(=O)=O then?
[reply] 59.2

[ask] For CCCCC(CC)CNC(=N)NC(=N)NCCCCCCNC(=N)NC(=N)NCC(CC)CCCC (centres unmarked) [YU034347, ALEXIDINE HYDROCHLORIDE, reference compound] then?
[reply] 80.6

[ask] For CSc1nc2cc(F)c(F)cc2n1C then?
[reply] 91.5

[ask] For N#CC(=Cc1ccncc1)c1nc2ccccc2s1 then?
[reply] 39.8

[ask] For COc1ccccc1NC(=O)COc1ccc(CO)cc1Cl then?
[reply] 99

[ask] For C[C@@](Cc1ccc(O)c(O)c1)(NN)C(=O)O [YU034292, CARBIDOPA, reference compound] then?
[reply] 100
